# System: Petriellidium boydii IFO8073
observation.type: MIC (µg/mL)
One number for each entry, in µg/mL.

>>> measurement("CN[C@@H]1[C@H](O[C@@H]2OC[C@@H](O)[C@H](O)[C@H]2O)[C@@H](O)[C@H](O[C@H]2c3cc(C)c(C(=O)N[C@H](CO)C(=O)O)c(O)c3-c3c(cc4c(c3O)C(=O)c3cc(OC)cc(O)c3C4=O)[C@@H]2O)O[C@@H]1C")
12.5

Q. Entry COc1cc(O)c2c(c1)C(=O)c1c(cc3c(c1O)-c1c(cc(C)c(C(=O)N[C@H](CO)C(=O)O)c1O)[C@H](O[C@@H]1O[C@H](C)[C@H](N)[C@H](O[C@@H]4OC[C@@H](O)[C@H](O)[C@H]4O)[C@H]1O)[C@H]3O)C2=O has what MIC?
A. 25

----------
# Test system: C. albicans A9540
observation.type: MIC (µg/mL)
Give bare numbers, in µg/mL.

>>> measurement("CN[C@@H]1[C@H](O)[C@@H](O)[C@H](O[C@H]2c3cc(C)c(C(=O)N[C@H](CO)C(=O)O)c(O)c3-c3c(cc4c(c3O)C(=O)c3cc(OC)cc(O)c3C4=O)[C@@H]2O)O[C@@H]1C")
3.1
>>> measurement("COc1cc(O)c2c(c1)C(=O)c1c(cc3c(c1O)-c1c(cc(C)c(C(=O)N[C@H](CO)C(=O)O)c1O)[C@H](O[C@@H]1O[C@H](C)[C@H](N)[C@H](O[C@@H]4OC[C@@H](O)[C@H](O)[C@H]4O)[C@H]1O)[C@H]3O)C2=O")
6.3
>>> measurement("COc1cc(O)c2c(c1)C(=O)c1c(cc3c(c1O)-c1c(cc(C)c(C(=O)N[C@H](CO)C(=O)O)c1O)[C@H](O[C@@H]1O[C@H](C)[C@H](N)[C@H](O)[C@H]1O)[C@H]3O)C2=O")
3.1
>>> measurement("CN[C@@H]1[C@H](O[C@@H]2OC[C@@H](O)[C@H](O)[C@H]2O)[C@@H](O)[C@H](O[C@H]2c3cc(C)c(C(=O)N[C@H](CO)C(=O)O)c(O)c3-c3c(cc4c(c3O)C(=O)c3cc(OC)cc(O)c3C4=O)[C@@H]2O)O[C@@H]1C")
12.5
>>> measurement("COc1cc(O)c2c(c1)C(=O)c1c(cc3c(c1O)-c1c(cc(C)c(C(=O)N[C@H](CO)C(=O)O)c1O)[C@H](O[C@@H]1O[C@H](C)[C@H](N(C)C)[C@H](O)[C@H]1O)[C@H]3O)C2=O")
6.3

Q. Entry COc1cc(O)c2c(c1)C(=O)c1c(cc3c(c1O)-c1c(cc(C)c(C(=O)N[C@H](CO)C(=O)O)c1O)[C@H](O[C@@H]1O[C@H](C)[C@H](N(C)C)[C@H](O[C@@H]4OC[C@@H](O)[C@H](O)[C@H]4O)[C@H]1O)[C@H]3O)C2=O has what MIC?
A. 6.3

----------
The next entries give measured MIC for Cryptococcus neoformans D49.
One number for each entry, in µg/mL.

>>> measurement("COc1cc(O)c2c(c1)C(=O)c1c(cc3c(c1O)-c1c(cc(C)c(C(=O)N[C@H](CO)C(=O)O)c1O)[C@H](O[C@@H]1O[C@H](C)[C@H](N)[C@H](O)[C@H]1O)[C@H]3O)C2=O")
3.1
>>> measurement("CN[C@@H]1[C@H](O[C@@H]2OC[C@@H](O)[C@H](O)[C@H]2O)[C@@H](O)[C@H](O[C@H]2c3cc(C)c(C(=O)N[C@H](CO)C(=O)O)c(O)c3-c3c(cc4c(c3O)C(=O)c3cc(OC)cc(O)c3C4=O)[C@@H]2O)O[C@@H]1C")
0.8
>>> measurement("COc1cc(O)c2c(c1)C(=O)c1c(cc3c(c1O)-c1c(cc(C)c(C(=O)N[C@H](CO)C(=O)O)c1O)[C@H](O[C@@H]1O[C@H](C)[C@H](N(C)C)[C@H](O[C@@H]4OC[C@@H](O)[C@H](O)[C@H]4O)[C@H]1O)[C@H]3O)C2=O")
0.8
>>> measurement("COc1cc(O)c2c(c1)C(=O)c1c(cc3c(c1O)-c1c(cc(C)c(C(=O)N[C@H](CO)C(=O)O)c1O)[C@H](O[C@@H]1O[C@H](C)[C@H](N(C)C)[C@H](O)[C@H]1O)[C@H]3O)C2=O")
1.6
>>> measurement("CN[C@@H]1[C@H](O)[C@@H](O)[C@H](O[C@H]2c3cc(C)c(C(=O)N[C@H](CO)C(=O)O)c(O)c3-c3c(cc4c(c3O)C(=O)c3cc(OC)cc(O)c3C4=O)[C@@H]2O)O[C@@H]1C")
1.6

Next compound, MIC to be filled in.
Q. Entry COc1cc(O)c2c(c1)C(=O)c1c(cc3c(c1O)-c1c(cc(C)c(C(=O)N[C@H](CO)C(=O)O)c1O)[C@H](O[C@@H]1O[C@H](C)[C@H](N)[C@H](O[C@@H]4OC[C@@H](O)[C@H](O)[C@H]4O)[C@H]1O)[C@H]3O)C2=O has what MIC?
A. 0.8

----------
# Tested on: T. mentagrophytes #4329
Provide the reported MIC of each item.
Answers are plain numbers, in µg/mL.

The following molecules have reported results that may help.
>>> measurement("CN[C@@H]1[C@H](O[C@@H]2OC[C@@H](O)[C@H](O)[C@H]2O)[C@@H](O)[C@H](O[C@H]2c3cc(C)c(C(=O)N[C@H](CO)C(=O)O)c(O)c3-c3c(cc4c(c3O)C(=O)c3cc(OC)cc(O)c3C4=O)[C@@H]2O)O[C@@H]1C")
6.3
>>> measurement("COc1cc(O)c2c(c1)C(=O)c1c(cc3c(c1O)-c1c(cc(C)c(C(=O)N[C@H](CO)C(=O)O)c1O)[C@H](O[C@@H]1O[C@H](C)[C@H](N)[C@H](O[C@@H]4OC[C@@H](O)[C@H](O)[C@H]4O)[C@H]1O)[C@H]3O)C2=O")
6.3

Could you tell me MIC for each of these molecules? They are listed below.
1. COc1cc(O)c2c(c1)C(=O)c1c(cc3c(c1O)-c1c(cc(C)c(C(=O)N[C@H](CO)C(=O)O)c1O)[C@H](O[C@@H]1O[C@H](C)[C@H](N(C)C)[C@H](O)[C@H]1O)[C@H]3O)C2=O
2. CN[C@@H]1[C@H](O)[C@@H](O)[C@H](O[C@H]2c3cc(C)c(C(=O)N[C@H](CO)C(=O)O)c(O)c3-c3c(cc4c(c3O)C(=O)c3cc(OC)cc(O)c3C4=O)[C@@H]2O)O[C@@H]1C
3. COc1cc(O)c2c(c1)C(=O)c1c(cc3c(c1O)-c1c(cc(C)c(C(=O)N[C@H](CO)C(=O)O)c1O)[C@H](O[C@@H]1O[C@H](C)[C@H](N)[C@H](O)[C@H]1O)[C@H]3O)C2=O
4. COc1cc(O)c2c(c1)C(=O)c1c(cc3c(c1O)-c1c(cc(C)c(C(=O)N[C@H](CO)C(=O)O)c1O)[C@H](O[C@@H]1O[C@H](C)[C@H](N(C)C)[C@H](O[C@@H]4OC[C@@H](O)[C@H](O)[C@H]4O)[C@H]1O)[C@H]3O)C2=O

A.
1: 6.3; 2: 12.5; 3: 12.5; 4: 6.3

----------
The next entries give measured MIC for Trichophyton mentagrophytes D155.
The reply should consist of the numeric value with the unit placed after it.

Could you tell me MIC for each of these molecules? They are listed below.
1. COc1cc(O)c2c(c1)C(=O)c1c(cc3c(c1O)-c1c(cc(C)c(C(=O)N[C@H](CO)C(=O)O)c1O)[C@H](O[C@@H]1O[C@H](C)[C@H](N)[C@H](O[C@@H]4OC[C@@H](O)[C@H](O)[C@H]4O)[C@H]1O)[C@H]3O)C2=O
2. COc1cc(O)c2c(c1)C(=O)c1c(cc3c(c1O)-c1c(cc(C)c(C(=O)N[C@H](CO)C(=O)O)c1O)[C@H](O[C@@H]1O[C@H](C)[C@H](N)[C@H](O)[C@H]1O)[C@H]3O)C2=O
3. COc1cc(O)c2c(c1)C(=O)c1c(cc3c(c1O)-c1c(cc(C)c(C(=O)N[C@H](CO)C(=O)O)c1O)[C@H](O[C@@H]1O[C@H](C)[C@H](N(C)C)[C@H](O)[C@H]1O)[C@H]3O)C2=O
4. CN[C@@H]1[C@H](O[C@@H]2OC[C@@H](O)[C@H](O)[C@H]2O)[C@@H](O)[C@H](O[C@H]2c3cc(C)c(C(=O)N[C@H](CO)C(=O)O)c(O)c3-c3c(cc4c(c3O)C(=O)c3cc(OC)cc(O)c3C4=O)[C@@H]2O)O[C@@H]1C

A.
["6.3 µg/mL", "12.5 µg/mL", "6.3 µg/mL", "6.3 µg/mL"]

These measurements were taken from patent US4973673A.
